- Test system: Saccharomyces cerevisiae
- Method Description: protein stability index of tFT-peptide fusion (C-terminal peptide) (PSI (0-1 scale)); higher = more stable (slower turnover)
- Conditions: genetic background: das1 deletion; temperature: 37 C
Observation Type: protein stability index

VGVVVVGDVLVW = 0.423
KKHKKGQKQKIN = 0.725
FPCIFFFCLFIL = 0.337
SVVYSVWIYLLH = 0.484
ECLRLTTKKKIN = 0.704
FSFLLYASLVTH = 0.333
PPAPTPFPPSPR = 0.741
LLLALLFWPCPI = 0.559
SQSNQSIIRKNV = 0.737
SSVLWVMFVFFY = 0.442
LNVEEGGGLENV = 0.719
GCLFMQVSLFWR = 0.295
LPHPLPFCFSLY = 0.778
GFVISSCRLFIL = 0.669
SVLSFGVFCLVG = 0.61
HTYSFRLLFIFL = 0.476
SVPRTRAPRLIS = 0.719
RRVLVVPCIWHM = 0.673
GGWSLFCIVVVV = 0.306

---

- System: Saccharomyces cerevisiae
- Method Description: protein stability index of tFT-peptide fusion (C-terminal peptide) (PSI (0-1 scale)); higher = more stable (slower turnover)
- Conditions: genetic background: das1 deletion; temperature: 30 C
Observation Type: protein stability index

CLMVSFLLLFGV [OLI1 C-terminal 12 aa] = 0.315
ALGLAGAVMMLL [SPI1 C-terminal 12 aa] = 0.693
WERTMRDLKLIH [ALG1 C-terminal 12 aa] = 0.742
CAAVEKGPILDA [THI74 C-terminal 12 aa] = 0.691
TDLPKWAQLDNS [PUS6 C-terminal 12 aa] = 0.729
YVVTSDEHPKTL [SIR2 C-terminal 12 aa] = 0.724
TANKVELMANIV [MAK31 C-terminal 12 aa] = 0.668
PQRTKIQAFNTL [MRP1 C-terminal 12 aa] = 0.702
LKYCKRRHNTPS [GCR1 C-terminal 12 aa] = 0.747
GSVPANWNWSSF [PIB2 C-terminal 12 aa] = 0.739
WAVICFCSGIHK [YMR027W C-terminal 12 aa] = 0.586
KDWLIKTRKTSL [TVS1 C-terminal 12 aa] = 0.707
TNTVPATSASSK [RGC1 C-terminal 12 aa] = 0.689
VQEWEVLGRVDV [CPD1 C-terminal 12 aa] = 0.724
YIFQTYVSVDSK [YAR047C C-terminal 12 aa] = 0.62
VSDSSYDEYSNE [SYT1 C-terminal 12 aa] = 0.679
SQEPQYKLFRGR [MRPL16 C-terminal 12 aa] = 0.699
LFGTCLVAMLLF [SPS22 C-terminal 12 aa] = 0.461
YQVSIAKVPRLT [BUD5 C-terminal 12 aa] = 0.711
FSVCCKDATEVS [YHR070C-A C-terminal 12 aa] = 0.676
LANFSNEVAMNN [SWP82 C-terminal 12 aa] = 0.696
LLEDIRANYSLN [YLL056C C-terminal 12 aa] = 0.681
QEQQNLRQKQPN [YBL029C-A C-terminal 12 aa] = 0.704
FVLIVLGLLTYL [GET2 C-terminal 12 aa] = 0.364
DSEEKKSKKSKK [CBF5 C-terminal 12 aa] = 0.669

---

- System: Saccharomyces cerevisiae
- Method Description: protein stability index of tFT-peptide fusion (C-terminal peptide) (PSI (0-1 scale)); higher = more stable (slower turnover)
- Conditions: genetic background: cdc34-1; temperature: 37 C
Quick rule for you: protein stability index at 0.4 or higher means Criterion met, lower means Criterion not met.

VCLLGWGVRLVS = Criterion met
SSVLLMFFCFVC = Criterion not met
SIRIIVVVRGAS = Criterion met
LFFPLPGILSFF = Criterion met
DDVRFLLWGLCC = Criterion met
AGESLRAIAVLY = Criterion met
PCLLRYLVHPFP = Criterion met
FCSFSWFLFLRS = Criterion not met
FWLFAFVIRKHI = Criterion not met
SIFWWWLVFILG = Criterion met
AGLTLLWPLCLL = Criterion not met
LILIVVVAGSVG = Criterion not met
FGFWGVVSCCNA = Criterion met
VFLACSMTGGDA = Criterion not met
VLVTFFIRSGVS = Criterion met
RFCLPLRLPVTT = Criterion met
FLAWSVGILCRV = Criterion not met
FGFFLFIFFFFR = Criterion not met
GVFLVWWVGFWV = Criterion not met
LSVSLFPIRYVG = Criterion met
TLCCLVCSQGVV = Criterion met
LVVIYPLLSSPV = Criterion met
CTLVVGLFVLVV = Criterion not met
LFSCTQLLPITA = Criterion not met
HDRLRGVFWRVP = Criterion met
SLSIFCLMLMLF = Criterion met
RFGLPLLVVTWL = Criterion met
LRSVLGWGLFLA = Criterion met
WVGGVLLSVVGG = Criterion not met
GYLFICSWCEGF = Criterion met
ALLIYFLCRCIP = Criterion met
GFRVTTCASWIC = Criterion met
GTMGWYSISRRL = Criterion met
HLKKKLKIRLIN = Criterion met

---

- Tested on: Saccharomyces cerevisiae
- Method Description: protein stability index of tFT-peptide fusion (C-terminal peptide) (PSI (0-1 scale)); higher = more stable (slower turnover)
- Conditions: genetic background: wild type; temperature: 37 C
Observation Type: protein stability index

GFYQSGGLVVVV = 0.64
EKKRERQKGEME = 0.717
RFHTFVFCLLCL = 0.386
VCGYGFAVPCYT = 0.535
NQIIRLIVGLLC = 0.355
DSGMLDFLLMAW = 0.53
VPTRRRGNRRPA = 0.706
GAVRGWGWVSFV = 0.436
YQKIARVSLAVS = 0.478
IRVFSFLLFGCF = 0.488
FFCRWGSTVTLL = 0.559
SSFPGPPLPPDP = 0.711
RKNSQKILKLSG = 0.576
RNNLHKKIRRGY = 0.458
FILSLSFVFSRP = 0.441
SSVFRLKGLMFL = 0.448
AVVCSRLVLFCL = 0.588
TSPYTSFAHTSL = 0.713
IGMVSELLLFYP = 0.73
IIFACFYGVFLM = 0.109
MCRMYELYVTSS = 0.558
CFFMVGFVFYFV = 0.438
KWGRFQQVMVIN = 0.34
ICFFQGVVVLFR = 0.452
VLARGFHCMYFC = 0.623
LLLTAIRVLRMH = 0.217
DSTLLYRPPSPA = 0.683
WVRLWGVLEAQG = 0.368
CSVPLGVFAIVV = 0.489
PFFLLAGITVAC = 0.16
VSFGELGVEVVG = 0.715
ILDRRPRTFALV = 0.149
LCIYNFGWWFCV = 0.128
RSIAFLLGQFLS = 0.637
GWLVGLGLVFFT = 0.618
YYKGGYLYLRLS = 0.316
CVGLYCLFVLLG = 0.278
RDTTQRRRKTAA = 0.608
CLFSPFCFILFC = 0.0686
QWRMLTCLMERL = 0.496
CFFFCSLFLSFL = 0.431
LINHSWLLLSVL = 0.158
SPVPITVAVGCR = 0.499
WQIGIYILQGLA = 0.262
FLASLCFFPLLC = 0.504
VFFCLFVLFLSG = 0.408
VEIKSKRMLVVI = 0.475
LPLPPPGSPPPL = 0.698
IVRLGRWLGLSC = 0.494
VVVHFVLVCSTS = 0.271
TSFLHLFVAAII = 0.55
LYVLNILSFVCV = 0.207
RDPLAPLLLAIP = 0.682
FPYARHLSVLLL = 0.54
VFLLFFFGLFVF = 0.414
PFPTPPPIPRSP = 0.705
VCVFFRLCIVWY = 0.145
TLLSSIFLCLVL = 0.574
RLGSLVPLAKQL = 0.413
VFLDCCLRVFVD = 0.389
FGVLLVWWYGLF = 0.314
KKHKKGQKQKIN = 0.149
SVVFFYPPIFHA = 0.549
FFVISVVLCLLV = 0.434
APLFPPPPARSL = 0.688
RVVITYLVLSNR = 0.645
DRRYIISLIYIL = 0.105
CLFLNCRFYMFL = 0.905
FAFPTPPPLLFD = 0.736
RWALPALWAYAA = 0.16
FSFLLYASLVTH = 0.315
RVFRRFCCVISM = 0.439
CMIACYALLRLL = 0.0702
FGVLFFVFVFVC = 0.203
MIILGFILYFFW = 0.444
FVMTYCLMSVSK = 0.0478
VSGEWSFLVRVQ = 0.554
GTMGWYSISRRL = 0.729
LSVMKLFVMVGP = 0.479
GLFLLWWLGWLV = 0.519
SVLSFGVFCLVG = 0.527
LLFGCLIRIGCS = 0.364
